assayed.target: GrUAS (Geminicoccus roseus)
Sequence (A0A291B0F6 entry or part of it): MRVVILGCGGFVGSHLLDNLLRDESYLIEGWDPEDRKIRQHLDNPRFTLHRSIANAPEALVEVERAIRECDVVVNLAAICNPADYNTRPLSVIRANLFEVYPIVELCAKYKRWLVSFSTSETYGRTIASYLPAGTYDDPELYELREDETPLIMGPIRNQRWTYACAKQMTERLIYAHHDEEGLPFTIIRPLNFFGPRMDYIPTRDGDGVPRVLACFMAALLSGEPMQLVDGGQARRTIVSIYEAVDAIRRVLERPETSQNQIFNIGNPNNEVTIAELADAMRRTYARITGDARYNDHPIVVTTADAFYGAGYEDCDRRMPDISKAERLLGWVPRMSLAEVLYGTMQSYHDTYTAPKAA
protocol.notes: HPLC, UDP-GlcA consumption with additive
Format: biochemical
test.settings: 1 mM UDP-GlcA, 1 mM NAD+, 50 mM Tris-HCl pH 7.9, 37 °C; additive concentration not given; residual activity versus water
readout.kind: Relative activity (%)^a

Recorded results for 5 molecules are shown here.
O=c1ccn([C@@H]2O[C@H](COP(=O)(O)OP(=O)(O)O[C@H]3OC[C@H](O)[C@H](O)[C@H]3O)[C@@H](O)[C@H]2O)c(=O)[nH]1 | 88.5
Cc1cn([C@H]2C[C@H](O)[C@@H](COP(=O)(O)OP(=O)(O)O)O2)c(=O)[nH]c1=O | 85.0
Nc1ccn([C@@H]2O[C@H](COP(=O)(O)OP(=O)(O)O)[C@@H](O)[C@H]2O)c(=O)n1 | 85.3
Nc1nc2c(ncn2[C@@H]2O[C@H](COP(=O)(O)O)[C@@H](O)[C@H]2O)c(=O)[nH]1 | 94.3
NC(=O)C1=CN([C@@H]2O[C@H](COP(=O)(O)OP(=O)(O)OC[C@H]3O[C@@H](n4cnc5c(N)ncnc54)[C@H](OP(=O)(O)O)[C@@H]3O)[C@@H](O)[C@H]2O)C=CC1 | 82.6

A = Nc1nc2c(ncn2[C@@H]2O[C@H](COP(=O)(O)OP(=O)(O)O)[C@@H](O)[C@H]2O)c(=O)[nH]1
B = O=C(O)[C@H]1O[C@H](OP(=O)(O)OP(=O)(O)OC[C@H]2O[C@@H](n3ccc(=O)[nH]c3=O)[C@H](O)[C@@H]2O)[C@H](O)[C@@H](O)[C@H]1O
Q. Sorting by Relative activity (%)^a in descending order, would A or B appear first? Identify your selection by its label.
A. A
(A: 85.2%, B: 33.4%)
